- experimental_parameters: bovine, in vivo, im, 5 mg/kg
Counter-ions that a name gives are not always drawn.
measured_property: Terminal half-lives (t1/2) (h)

CO/N=C(\C(=O)N[C@@H]1C(=O)N2C(C(=O)[O-])=C(C[n+]3cccc4c3CCCC4)CS[C@H]12)c1csc(N)n1 [Example 18]
13.00
CO/N=C(\C(=O)N[C@@H]1C(=O)N2C(C(=O)[O-])=C(C[n+]3cccc4c3CCCC4)CS[C@H]12)c1csc(N)n1 [Sulfate, cefquinome sulfate, reference compound]
2.15
CO/N=C(\C(=O)N[C@@H]1C(=O)N2C(C(=O)[O-])=C(C[n+]3cccc4c3CCCC4)CS[C@H]12)c1csc(N)n1 [Example 9]
15.6

A = CO/N=C(\C(=O)N[C@@H]1C(=O)N2C(C(=O)[O-])=C(C[n+]3cccc4c3CCCC4)CS[C@H]12)c1csc(N)n1 [Example 15]
B = CO/N=C(\C(=O)N[C@@H]1C(=O)N2C(C(=O)[O-])=C(C[n+]3cccc4c3CCCC4)CS[C@H]12)c1csc(N)n1 [Example 6]
Form field 'greater Terminal half-lives (t1/2)' accepts A or B ; which applies? To answer, give the label that identifies your chosen option.
A

I = CO/N=C(\C(=O)N[C@@H]1C(=O)N2C(C(=O)[O-])=C(C[n+]3cccc4c3CCCC4)CS[C@H]12)c1csc(N)n1 [Example 12]
II = CO/N=C(\C(=O)N[C@@H]1C(=O)N2C(C(=O)[O-])=C(C[n+]3cccc4c3CCCC4)CS[C@H]12)c1csc(N)n1 [Example 16]
Form field 'greater Terminal half-lives (t1/2)' accepts I or II ; which applies? To answer, give the label that identifies your chosen option.
I

I = CO/N=C(\C(=O)N[C@@H]1C(=O)N2C(C(=O)[O-])=C(C[n+]3cccc4c3CCCC4)CS[C@H]12)c1csc(N)n1 [Example 1, Cefquinome-6-hydroxy-1-naphthoate]
II = CO/N=C(\C(=O)N[C@@H]1C(=O)N2C(C(=O)[O-])=C(C[n+]3cccc4c3CCCC4)CS[C@H]12)c1csc(N)n1 [Example 11, cefquinome-2,4-dihydroxybenzoate]
Of I versus II , which is the one with smaller reported Terminal half-lives (t1/2)? To answer, give the label that identifies your chosen option.
I
(I: 9.20 h, II: 16.20 h)
